Attribution: paper PMC6451091

- experimental target: PU.1 (IVT) (UniProt P17947 1-270)
- assay summary: protein-binding microarray (PBM); 20 mM HEPES pH 7.9, 100 mM NaCl, 1 mM DTT, 0.2 mg/mL BSA, 0.02% Triton X-100, 2% milk, 0.4 mg/mL salmon testes DNA; 1 h; temperature not stated; high values mean tight binding
- test parameters: dsDNA, one strand shown
Over roughly 3,700 sequences, “z-score” has its median near 4; the highest 2% begin near 8.4. For the sample, the highest values were picked, then their nearest neighbours and some sequences at random.
assay metric: binding signal

For orientation, consider the following solved cases.
> print(dat)
                             sequence.chain                experimental.target  recorded.value
1  GCCTAGCACGAAATGAGGAAGTACCTAAAGTGCTAGGTCTTGATTCGCTTGACGCTGCTG  PU.1 (IVT) (UniProt P17947 1-270)    8.71 z-score
2  GCCTAGCACTAAAAGAGGAACTGAAACCAGTGCTAGGTCTTGATTCGCTTGACGCTGCTG  PU.1 (IVT) (UniProt P17947 1-270)    6.72 z-score

**Query** Which binding signal reading was recorded for the sequence GCCTAGCACAGAAAGAGGAAGTGATTGAAGTGCTAGGTCTTGATTCGCTTGACGCTGCTG ?
**Result** 8.32 z-score

**Query** Which binding signal reading was recorded for the sequence GCCTAGCACCAAATGAGGAACTGATGCGAGTGCTAGGTCTTGATTCGCTTGACGCTGCTG ?
**Result** 6.15 z-score

**Query** Which binding signal reading was recorded for the sequence GCCTAGCACGAAAAGAGGAAGTCAAATTGGTGCTAGGTCTTGATTCGCTTGACGCTGCTG ?
**Result** 8.37 z-score

**Query** Which binding signal reading was recorded for the sequence GCCTAGCACGAAATGAGGAAGTTGAGAGCGTGCTAGGTCTTGATTCGCTTGACGCTGCTG ?
**Result** 8.36 z-score

----------
- experimental target: PU.1 (IVT) (UniProt P17947 1-270)
- assay summary: protein-binding microarray (PBM); 20 mM HEPES pH 7.9, 100 mM NaCl, 1 mM DTT, 0.2 mg/mL BSA, 0.02% Triton X-100, 2% milk, 0.4 mg/mL salmon testes DNA; 1 h; temperature not stated; high values mean tight binding
- test parameters: dsDNA, one strand shown
Over roughly 3,700 sequences, “z-score” has its median near 4; the highest 2% begin near 8.4. The full list was thinned out, with the highest values kept by preference.
Record Yes whenever binding signal is at 8 z-score or higher; record No when lower.

**Query** Quick check: does GCCTAGCACCAAAAGCGGAAGTGGTGCCTGTGCTAGGTCTTGATTCGCTTGACGCTGCTG have binding signal greater than or equal to 8 z-score?
**Result** Yes

**Query** Quick check: does GCCTAGCACAAAAAGAGGAAGTGGTTGTCGTGCTAGGTCTTGATTCGCTTGACGCTGCTG have binding signal greater than or equal to 8 z-score?
**Result** Yes

**Query** Quick check: does GCCTAGCACAACAAGAGGAAGTGGCTTTCGTGCTAGGTCTTGATTCGCTTGACGCTGCTG have binding signal greater than or equal to 8 z-score?
**Result** No

**Query** Quick check: does GCCTAGCACAAAAAGAGGAAGTGCTTTTCGTGCTAGGTCTTGATTCGCTTGACGCTGCTG have binding signal greater than or equal to 8 z-score?
**Result** Yes

**Query** Quick check: does GCCTAGCACAAAAAAAGGAAGTGGTGGTTGTGCTAGGTCTTGATTCGCTTGACGCTGCTG have binding signal greater than or equal to 8 z-score?
**Result** No

**Query** Quick check: does GCCTAGCACGAAAAGAGGAAGTCTGAAAAGTGCTAGGTCTTGATTCGCTTGACGCTGCTG have binding signal greater than or equal to 8 z-score?
**Result** No

**Query** Quick check: does GCCTAGCACCAAAAGAGGAAGAGTCTGACGTGCTAGGTCTTGATTCGCTTGACGCTGCTG have binding signal greater than or equal to 8 z-score?
**Result** No

----------
- experimental target: PU.1 (IVT) (UniProt P17947 1-270)
- assay summary: protein-binding microarray (PBM); 20 mM HEPES pH 7.9, 100 mM NaCl, 1 mM DTT, 0.2 mg/mL BSA, 0.02% Triton X-100, 2% milk, 0.4 mg/mL salmon testes DNA; 1 h; temperature not stated; high values mean tight binding
- test parameters: dsDNA, one strand shown
Whole data set: some 3,700 sequences, median “z-score” near 4, cut for the highest 2% near 8.4. Many of the other results were omitted from the sample, so the highest values are more common in it than they were.
Record Met whenever binding signal is at 6 z-score or higher; record Not met when lower.

Worked cases, answers included:
> print(dat)
                             sequence.chain  answer.label
1  GCCTAGCACAGATTGTGGAAGTACTGTGAGTGCTAGGTCTTGATTCGCTTGACGCTGCTG       Not met
2  GCCTAGCACGAAAAGAGGAAGTCAAACCAGTGCTAGGTCTTGATTCGCTTGACGCTGCTG           Met
3  GCCTAGCACAGAATAGGGAAGTGAGAAATGTGCTAGGTCTTGATTCGCTTGACGCTGCTG           Met

**Query** Quick check: does GCCTAGCACGACAAGAGGAAGTGCAAGATGTGCTAGGTCTTGATTCGCTTGACGCTGCTG have binding signal greater than or equal to 6 z-score?
**Result** Not met

**Query** Quick check: does GCCTAGCACCGAAAGAGGAAGTGCAACCAGTGCTAGGTCTTGATTCGCTTGACGCTGCTG have binding signal greater than or equal to 6 z-score?
**Result** Met

----------
- experimental target: PU.1 (IVT) (UniProt P17947 1-270)
- assay summary: protein-binding microarray (PBM); 20 mM HEPES pH 7.9, 100 mM NaCl, 1 mM DTT, 0.2 mg/mL BSA, 0.02% Triton X-100, 2% milk, 0.4 mg/mL salmon testes DNA; 1 h; temperature not stated; high values mean tight binding
- test parameters: dsDNA, one strand shown
Whole data set: some 3,700 sequences, median “z-score” near 4, cut for the highest 2% near 8.4. The sample as a whole holds a higher share of the highest values than the screen did.
assay metric: binding signal (z-score)
Entry rule: numbers only, all in z-score.

For orientation, consider the following solved cases.
> print(dat)
                             sequence.chain    assay.metric  result.units  recorded.value
1  GCCTAGCACGAAGAGAGGAAGTCAAATTGGTGCTAGGTCTTGATTCGCTTGACGCTGCTG  binding signal       z-score            4.29
2  GCCTAGCACTGAAAAGGGAAGTGAGGAAGGTGCTAGGTCTTGATTCGCTTGACGCTGCTG  binding signal       z-score            5.34
3  GCCTAGCACGAAGAGAGGAAGTGAAATTGGTGCTAGGTCTTGATTCGCTTGACGCTGCTG  binding signal       z-score            5.29
4  GCCTAGCACGAAAAGAGGAACAGCCTCTGGTGCTAGGTCTTGATTCGCTTGACGCTGCTG  binding signal       z-score            5.13

**Query** Which binding signal reading was recorded for the sequence GCCTAGCACAAAAACAGGAACTGGCCAGGGTGCTAGGTCTTGATTCGCTTGACGCTGCTG ?
**Result** 5.89

**Query** Which binding signal reading was recorded for the sequence GCCTAGCACAATATGAGGAAGTGCTCTAGGTGCTAGGTCTTGATTCGCTTGACGCTGCTG ?
**Result** 6.67

**Query** Which binding signal reading was recorded for the sequence GCCTAGCACGAAAGGAGGAAGTGGAGGGTGTGCTAGGTCTTGATTCGCTTGACGCTGCTG ?
**Result** 5.92

**Query** Which binding signal reading was recorded for the sequence GCCTAGCACTGATAGAGGAAGTGCAACCAGTGCTAGGTCTTGATTCGCTTGACGCTGCTG ?
**Result** 4.92

**Query** Which binding signal reading was recorded for the sequence GCCTAGCACCCTAAAGGGAAGTGTAAATAGTGCTAGGTCTTGATTCGCTTGACGCTGCTG ?
**Result** 3.27

**Query** Which binding signal reading was recorded for the sequence GCCTAGCACAAAAAAAGGAAGTGGACCGTGTGCTAGGTCTTGATTCGCTTGACGCTGCTG ?
**Result** 6.55

----------
- experimental target: PU.1 (IVT) (UniProt P17947 1-270)
- assay summary: protein-binding microarray (PBM); 20 mM HEPES pH 7.9, 100 mM NaCl, 1 mM DTT, 0.2 mg/mL BSA, 0.02% Triton X-100, 2% milk, 0.4 mg/mL salmon testes DNA; 1 h; temperature not stated; high values mean tight binding
- test parameters: dsDNA, one strand shown
In all, about 3,700 sequences were measured (“z-score”: median about 4, highest 2% from about 8.4 on). The entries come from a sample that favours the highest values as a whole.
Binary label based on binding signal with cut-off 6 z-score: below gives yes, not below gives no.

Worked cases, answers included:
> print(dat)
                             sequence.chain                experimental.target  answer.label
1  GCCTAGCACAGAAAGAGGAACTGACTGACGTGCTAGGTCTTGATTCGCTTGACGCTGCTG  PU.1 (IVT) (UniProt P17947 1-270)            no
2  GCCTAGCACTGAAAGGGGAAGTGGGTGCCGTGCTAGGTCTTGATTCGCTTGACGCTGCTG  PU.1 (IVT) (UniProt P17947 1-270)            no
3  GCCTAGCACAGCATGAGGAAGTGTCAGATGTGCTAGGTCTTGATTCGCTTGACGCTGCTG  PU.1 (IVT) (UniProt P17947 1-270)           yes
4  GCCTAGCACAGAAAGAGGAAGAGCTGCCAGTGCTAGGTCTTGATTCGCTTGACGCTGCTG  PU.1 (IVT) (UniProt P17947 1-270)           yes

Turning now to a further record.
**Query** Hello, is binding signal of the following sequence strictly smaller than 6 z-score? GCCTAGCACGCTAAGAGGAAGTCCTCTGTGTGCTAGGTCTTGATTCGCTTGACGCTGCTG
**Result** yes
